- Tested on: CAKI-1
- CONDITION_SET: CAKI-1, 48 h
Reported TGI values are given for each entry in this list.
MEASURE_NAME: TGI (µM)

1) O=C(O)CCN1C(=O)/C(=C/C=C/c2ccc([N+](=O)[O-])o2)SC1=S [12b]	2.74
2) O=C(O)C(c1ccccc1)N1C(=O)/C(=C/C=C/c2ccc([N+](=O)[O-])o2)SC1=S (centres unmarked)	19.7
3) CCCC(C(=O)O)N1C(=O)/C(=C/C=C/c2ccc([N+](=O)[O-])o2)SC1=S (centres unmarked)	3.70
4) CCCCC(C(=O)O)N1C(=O)/C(=C/C=C/c2ccc([N+](=O)[O-])o2)SC1=S (centres unmarked)	3.29
5) CC(C)C(C(=O)O)N1C(=O)/C(=C/C=C/c2ccc([N+](=O)[O-])o2)SC1=S (centres unmarked)	2.46
